test: protein stability index of a GFP-peptide fusion (yeast GPS) (PSI 1-4); higher = more stable; sorted into four equal gates, so the index is relative within each strain; conditions: doa10∆
Catalogue of sequences with associated protein stability index

Here's what some known entries look like.
# ordered residues, protein stability index
data = [
    ("ATSKTSEMLAKYSDILL [CDC53]", 3.11),
    ("LSPPEFLFHAISGREGL [RPO31]", 2.17),
    ("MTTFYKCVNCGHRWKEN [RPC11]", 2.82),
]

Please report the recorded protein stability index for LNKFKKAIFQFVCRGMA [ECM29] . 2.06

GET /values?readout=protein stability index&item= AVRLILPGELAKHAVSE [HTB1] 3.23

State the recorded protein stability index for this entry: QQLLKGLSLSFSKKLDL [DSN1] 3.13

Tell me the measured protein stability index of NYDIITASSLAHDYNND [YML103C/NUP188] , please. 2.64

Entry under review: SFAKLVPCEGKDVTQGL [SMC2] . Reported protein stability index? 1.62

Which protein stability index is reported for this sequence? TGSLMGGNSTQNTSNMN [YGR119C/NUP57] 3.19

----------
assay: protein stability index of a GFP-peptide fusion (yeast GPS) (PSI 1-4); higher = more stable; sorted into four equal gates, so the index is relative within each strain; settings: san1∆
Measured protein stability index, listed per entry.
Reply with just the number.

Worked examples follow.
# ordered residues, protein stability index
rows = [
    ("TLDVEAFKSVVSTETFE [RPL27A]", 2.59),
    ("LRLFINEEGDWSCIVVE [ITC1]", 3.07),
    ("LLREFKKLDDKPSLVDV [RPN6]", 3.27),
    ("TPEYAAEKVKVRDELRK [UBP6]", 1.42),
]

Which protein stability index value is on record for NDKSEVLKVYSMINNSN [SRB8] ? 2.86

----------
Quick reference for protein stability index among some sequences
assay: protein stability index of a GFP-peptide fusion (yeast GPS) (PSI 1-4); higher = more stable; sorted into four equal gates, so the index is relative within each strain; conditions: doa10∆
Give a plain numeric answer without units written out.

Use these answered entries as a reference point.
# ordered residues, reading
rows = [
    ("VVSTTAVIESVVNQPTG [FAS1]", 2.06),
    ("TIISPHKDIPEEDFYTV [DSN1]", 3.21),
    ("SEEINQYVTQIEQEKQE [PRE6]", 2.68),
    ("EDVVAISSRTFGQRAVL [RPS0A]", 3.3),
]

Can you look up the measured protein stability index of IWFPEDFISPELIIDKV [MED1] for me? 2.68

protein stability index lookup needed for IKNGRIYFTVPNEFEIQ [RGR1] , thanks. 2.62

Quick check: protein stability index of STYRLEDVLSSFYRVEK [SSN2] ? 2.09

Entry under review: KISNSKLLSLLRSKTSA [SIR4] . Reported protein stability index? 2.19

Looking for the measured protein stability index of QPNEISFKYLSNNDEDD [RGR1] , can you help? 2.37

Data request, read-out protein stability index, for QDSIDISIKDNKLVMKS [GAL11] 2.5

----------
test: protein stability index of a GFP-peptide fusion (yeast GPS) (PSI 1-4); higher = more stable; sorted into four equal gates, so the index is relative within each strain; conditions: doa10∆
# protein stability index values compiled below
Give the figure by itself; no unit, no explanation.

# ordered residues, protein stability index
data = [
    ("IIGHNPDENKTRVRLPS [RPL2A]", 2.93),
    ("TAKRKSRKRKPKSASNT [IRR1]", 2.97),
    ("EAQANLLTAKHGMTLRE [RPO21]", 2.98),
    ("LGLCLVIQIVTGIFMAM [COB]", 1.36),
]

Could you share which protein stability index value was measured for GIKAKHDKNIQKLLKQL [ISW2] ? 2.41

Consider the sequence shown here: SPVELSRMFEEVSGSIQ [SMC1] What is its recorded protein stability index? 2.9

For SGMGPDYRVLVDKSRKV [PRE8] , what is its reported protein stability index? 3

----------
experiment: protein stability index of a GFP-peptide fusion (yeast GPS) (PSI 1-4); higher = more stable; sorted into four equal gates, so the index is relative within each strain; details: ubr1∆
endpoint label: protein stability index
Form: value (number only, do not type unit).

# ordered residues, endpoint label, reading
data = [
    ("YLVEAPWNDDYPFLLSF [YML103C/NUP188]", "protein stability index", 1.61),
]

Look at this sequence and give its reported protein stability index. QQLVDSEKRLDHFIHLR [SNF12] 2.68

Returns the measured protein stability index for the input sequence. Input: LSHGSLEHVLLVPTASF [FAS1] 1.19

----------
experiment: protein stability index of a GFP-peptide fusion (yeast GPS) (PSI 1-4); higher = more stable; sorted into four equal gates, so the index is relative within each strain; conditions: doa10∆
Answer Criterion not met if protein stability index is under 3, and Criterion met if it is 3 or more.

Solved cases (8 shown):
# ordered residues, class name
measured = [
    ("GRLSLRSLTAYAPNLML [QCR10]", "Criterion not met"),
    ("SLPSKLTKYKEMERIVK [SRP68]", "Criterion not met"),
    ("NFILEVFGTIIPKISDY [YJL039C/NUP192]", "Criterion not met"),
    ("LTVFYAIKKFKTEKDGV [SSN3]", "Criterion not met"),
    ("QIIRRVKEMEPKQSDEY [SIR3]", "Criterion met"),
    ("CYFRDFEYCRIDGSTSH [ISW2]", "Criterion not met"),
    ("AVAVGNVEMEEDVLVNQ [RPL1A]", "Criterion not met"),
    ("NEIIRSLSDEVMRNEIR [SIR4]", "Criterion not met"),
]

Dear colleague, could you confirm whether EEDYNEFNSIDRVIFRV [PRP8] has protein stability index at or above 3? Criterion met

API: above_or_equal(metric=protein stability index, cutoff=3) for item PIRINSTEEIEYIELEY [YMR129W/POM152] Criterion not met

Check the entry YFGENSSISWKNIAQCL [YJL039C/NUP192] : does protein stability index equal or exceed 3? Criterion not met

In plain terms: is recorded protein stability index at least 3 for LYFYRDPEEVEQQVAEE [RPS0A] ? Criterion met

Item MSANGFAADGDALVKRF [PRE7] with protein stability index of 3 or above? Criterion met

Determine whether this sequence has protein stability index no lower than 3: FTITVARKYLQTRWGLP [FAS2] Criterion not met

Decide: is the reported value of protein stability index for GALPPDLSLIVKARHGG [CYT1] equal to or greater than 3? Criterion not met

Hi, just wondering whether LWNLNAYRTDVIQALGG [PRP8] shows protein stability index of 3 or higher. Criterion not met

----------
assay: protein stability index of a GFP-peptide fusion (yeast GPS) (PSI 1-4); higher = more stable; sorted into four equal gates, so the index is relative within each strain; conditions: san1∆
Property: protein stability index; scope: individual sequences
Reply with the value as a number alone.

Check out these entries, answers already filled in.
# ordered residues, protein stability index
data = [
    ("TLASLIRYNSVEIQEVP [RPC82]", 2.48),
    ("ADVYAKALEGKDLKEIL [RPP1B]", 3.51),
]

# query: protein stability index of entry QDRHVIFLAERRILPKP [RPS7A] 2.86

----------
experiment: protein stability index of a GFP-peptide fusion (yeast GPS) (PSI 1-4); higher = more stable; sorted into four equal gates, so the index is relative within each strain; details: ubr1∆
endpoint label: protein stability index

# annotated cases, reported protein stability index shown
# ordered residues, endpoint label, reading
measured = [
    ("QYSTRHDAPRGLFPFES [SWI3]", "protein stability index", 3.13),
    ("GHNDWVSQVRVVPNEKA [ASC1]", "protein stability index", 2.69),
    ("DLKPANIMVTIDGCVKI [SSN3]", "protein stability index", 1.69),
    ("KLQFETDRLSTTQRRYE [SMC1]", "protein stability index", 3.12),
    ("VPTLEAKRDYIISRLNA [FAS1]", "protein stability index", 3.25),
]

Please look up its protein stability index: QTIEMITQIVEKDFCTS [SRB8] 3.02

Give the measured protein stability index of ENGRRINELTLLVQKRF [RPS3] . 3.32

What value of measured protein stability index is listed for SQPTAAGGPDMTTPQNI [DSN1] ? 1.36

Find the recorded protein stability index belonging to AFVKDMQVYLVPIERVA [RPC37] and report it. 1.27

Which measured protein stability index value corresponds to AEKSYLYDSLASTPSIR [RRP42] ? 3.2

# input sequence: MIAKEVKTSPDAKKCIA [FAS1] ; wanted: its protein stability index 2.05

Quick check: protein stability index of ETISAIEHPMTSAIEVL [RPN1] ? 1.8

Reported protein stability index, sequence PKRKRRLPVSEDTNTKP [YOR098C/NUP1] : ____ 2.97

Record request: protein stability index value, item TYEAIDVPGRELKYELI [RPB2] 3.81

Data request, read-out protein stability index, for TWIHSEIEELKSSIQNL [SMC3] 3.08

Look up protein stability index: IEDKENSESTTQGGNVN [RPT5] 3.6

So what's the measured protein stability index for this one? NTPLSLPTRGTLESLEN [COR1] 2.41

Requested read-out: protein stability index. Entry: FKKLNSKNMSKSPSLTA [YMR153W/NUP53] 2.13

For PANHLQSDFCLSWCPSR [YGL100W/SEH1] , what is its reported protein stability index? 2.4

Form field: reported protein stability index of ICERIFEQGQALKEDER [RRI2] 3.21

# get_value(readout='protein stability index', item= KKKRFEIKKWTAVAFWS [HRT1] ) 2.27

Data request, read-out protein stability index, for LDESSEQKNTAKEELNG [YIL149C/MLP2] 3.22

Consider the sequence shown here: VQNSTLAQLTSKLIPEV [RPS1B] What is its recorded protein stability index? 2.55

Which protein stability index is listed for LTLMEKAAFEDLKSKGL [FAS1] ? 3.26

What value of protein stability index has been reported for the following sequence? VEGHLFEIIDEASKKSA [FAS1] 3.33
